- Experiment description: inhibitors of TNFa-induced NFkB p65 translocation, primary screen, imaging, HUVEC, MLSMR starter and 10KST1 sets (AID 438);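 note: compound added about 3h40 before a 20 min TNFalpha stimulation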
- Test conditions: HUVEC TNFa-induced p65 nuclear translocation; measured here: nuclei count (cytotoxicity indicator), at 2.08 µM
Metric: cell count
Respond numerically, and do not add a unit to the figure.

Need cell count, item `CCCCNC(=O)N(C)c1nncnc1C(=O)NC` 491

Need cell count, item `COC(=O)CSc1nc2sc3c(c2c(=O)n1C1CCCCC1)CCN(C)C3` 390

Need cell count, item `CCCCOc1ccc(CN(C)c2ncnc(N)n2)cc1` 657

Need cell count, item c1ccc(-c2ccc(C(c3ccccc3)n3ccnc3)cc2)cc1 (centres undefined) 591

* * *

- Experiment description: inhibitors of TNFa-induced NFkB p65 translocation, primary screen, imaging, HUVEC, MLSMR starter and 10KST1 sets (AID 438);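 note: compound added about 3h40 before a 20 min TNFalpha stimulation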
- Test conditions: HUVEC TNFa-induced p65 nuclear translocation; measured here: nuclei count (cytotoxicity indicator), at 2.08 µM
Grouping key: cell count. Bins: bucket A = under 500, bucket B = from 500 up to 600, bucket C = 600 and over

Entry `Cc1cc(C)c2nc(SCCC#N)nc(C)c2c1` belongs to which category? bucket C

Entry `Cc1cc(C)nc(N(C#N)S(=O)(=O)c2ccccc2Cl)n1` belongs to which category? bucket A

Entry `Cn1c(=O)c2c(nc(Oc3ccc4c(c3)OCO4)n2Cc2ccc(F)cc2)n(C)c1=O` belongs to which category? bucket C

Entry `Cc1cc(=O)oc(C)c1C(=O)N1CCN(Cc2ccc3c(c2)OCO3)CC1` belongs to which category? bucket A

Entry `CCCCC1C(=O)N(c2ccccc2)N(c2ccccc2)C1=O` belongs to which category? bucket C

Entry COc1ccc(C2C=C(c3ccc(Cl)cc3)Nc3nc(NC(C)=O)nn32)cc1 (stereo unspecified) belongs to which category? bucket A

Entry `CC1(C)S[C@@H]2[C@H](NC(=O)[C@H](C(=O)O)c3ccsc3)C(=O)N2[C@H]1C(=O)O` belongs to which category? bucket B

Entry `Nc1ccc2ncccc2c1N` belongs to which category? bucket B

Entry `CN1CCN(CCCN2c3ccccc3Sc3ccc(Cl)cc32)CC1` belongs to which category? bucket C

Entry `CCCc1nnc(NC(=O)c2c(O)c3c([nH]c2=O)CCCC3)s1` belongs to which category? bucket A

Entry `COC(=O)c1cc2c(=O)n3cccc(C)c3nc2n(Cc2cccnc2)c1=N` belongs to which category? bucket C

Entry `Cc1nnc(SCC(=O)N2CCC(C(N)=O)CC2)s1` belongs to which category? bucket A

Entry COc1ccccc1N1C(=O)C2ON(c3ccccc3)C(c3ccc(N(C)C)cc3)C2C1=O (stereo unspecified) belongs to which category? bucket B

Entry CCCOc1ccc(CSC(CC(=O)O)C(=O)O)cc1 (stereo unspecified) belongs to which category? bucket B

Entry CCC(C)Nc1nc(-c2cccc(OC)c2O)nc2ccccc12 (stereo unspecified) belongs to which category? bucket B

Entry `CC1(C)CC(=O)C=C(NCc2ccncc2)C1` belongs to which category? bucket C

Entry O=C(NCCCn1ccnc1)C(Cc1ccccc1)N1C(=O)c2ccccc2C1=O (stereo unspecified) belongs to which category? bucket A

Entry `COC(=O)c1cc(=O)n2c(-c3ccc(OC)cc3)csc2n1` belongs to which category? bucket A

Entry `Cc1cc(C)n(Cc2ccc(C(=O)NCCC3=CCCCC3)o2)n1` belongs to which category? bucket A

Entry `CC(=O)c1cc(CN2CCCCC2)cc(OC(C)C)c1` belongs to which category? bucket C

Entry `CN(C)CCN(Cc1ccccc1)c1ccccn1` belongs to which category? bucket B

Entry `CC(=Nc1cccc(O)c1)c1sc2ccccc2c1O` belongs to which category? bucket C

Entry COC(=O)C(NC(C)=O)(Nc1nc2c(s1)CCCC2)C(F)(F)F (stereo unspecified) belongs to which category? bucket A

Entry `CSc1nc(C)cc(OCCNS(=O)(=O)c2cc(C)ccc2C)n1` belongs to which category? bucket A

Entry `CCOC(=O)CSC1=C(C#N)C(=O)NC2(CCCCC2)S1` belongs to which category? bucket B

Entry `CC(=O)N=c1sc(S(N)(=O)=O)nn1C` belongs to which category? bucket B

Entry `COc1ccccc1OCC(=O)Nc1ccc(S(=O)(=O)Nc2cc(C)nc(C)n2)cc1` belongs to which category? bucket B

Entry `CCCCc1c(O)nc(SCCN(C)C)n(-c2ccccc2)c1=O` belongs to which category? bucket A

Entry Cc1nc(SC2C=CS(=O)(=O)C2)n[nH]1 (stereo unspecified) belongs to which category? bucket A

Entry `COc1ccc(C(=O)Nc2cccnc2)cc1C(=O)Nc1cccnc1` belongs to which category? bucket C

Entry `CC(=O)OCC[N+](C)(C)C` belongs to which category? bucket B

Entry `CC1(C)C/C(=C(/C#N)C(N)=O)CCO1` belongs to which category? bucket B

Entry `COc1cccc(-c2nnc3sc(-c4ccc(C)cc4)nn23)c1` belongs to which category? bucket C

Entry COC(=O)c1ccc(C2/C(=C(/O)c3ccc(OC)cc3)C(=O)C(=O)N2c2cc(C)on2)cc1 (stereo unspecified) belongs to which category? bucket A

Measured values drawn from PubChem BioAssay for this set.
